This collection of values is drawn from patent US5521199A.

Where a name gives a salt, the structure may show the parent alone.
# Ki measurements, system: human NK2 receptor (Homo sapiens, UniProt P21452)
# Sequence (P21452 whole entry): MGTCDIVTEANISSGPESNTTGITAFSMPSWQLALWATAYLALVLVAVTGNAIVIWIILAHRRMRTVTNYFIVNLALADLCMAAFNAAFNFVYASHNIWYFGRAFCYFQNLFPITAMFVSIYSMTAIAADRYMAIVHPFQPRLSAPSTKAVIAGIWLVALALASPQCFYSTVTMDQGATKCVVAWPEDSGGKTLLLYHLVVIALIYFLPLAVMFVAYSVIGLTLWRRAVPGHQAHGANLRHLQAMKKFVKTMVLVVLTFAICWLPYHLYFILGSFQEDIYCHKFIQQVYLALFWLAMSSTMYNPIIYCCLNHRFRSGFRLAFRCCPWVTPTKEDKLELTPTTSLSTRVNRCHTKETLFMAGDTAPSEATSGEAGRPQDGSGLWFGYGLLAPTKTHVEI
Endpoint: Ki (nM)

> print(dat)
                                   molecule  endpoint  test.result
1  CC(=O)OCCC1CCN(CCC(CN(C)C(=O)c2ccccc2)c2ccc(Cl)c(Cl)c2)CC1 (centres unmarked) [Example 10, hydrochloride]        Ki           40
2  CCC(O)(CC)C1CCN(CC[C@H](CN(C)C(=O)c2ccccc2)c2ccc(Cl)c(Cl)c2)CC1.Cl [Example 16, hydrochloride]        Ki          1.5
